- Test system: mouse SGLT2 mRNA
- Test name: Mouse SGLT2 mRNA levels in kidney, 1-10-1 MOE gapmers, Balb/c mice (Example 14, Table 65)
- Format: in vivo
- Setup conditions: 50 nmol/kg i.p. twice per week for two weeks
Strand notation (5' to 3'): a small letter for the sugar, then the base; units joined by * are phosphorothioate-linked, units joined directly phosphodiester-linked; [ ] holds rarer units or linkages, { } end groups; capitals alone tell only the bases. e = 2'-O-(2-methoxyethyl) (MOE); [5mC] = 5-methylcytosine; d = 2'-deoxy (DNA)
% change in SGLT2 expression relative to saline reference
Answer format: numeric, % implied, no suffix.

Please review the entries below; each comes with its answer.
[
  {
    "Substance": "ISIS 379699: SGLT2; GGCATGAGCTTC 1-10-1 MOE (antisense eG*dG*d[5mC]*dA*dT*dG*dA*dG*d[5mC]*dT*dT*e[5mC])",
    "Uom": "%",
    "Reading": "−42.5"
  },
  {
    "Substance": "ISIS 379702: targeted to SGLT2 (antisense eG*d[5mC]*dA*d[5mC]*dA*d[5mC]*dA*dG*d[5mC]*dT*dG*e[5mC])",
    "Uom": "%",
    "Reading": "−52.5"
  },
  {
    "Substance": "ISIS 370717: SGLT2; TAGCCACCAACT 1-10-1 MOE gapmer, phosphorothioate (sugars from the 5' end e1 d10 e1, all phosphorothioate, methylation of C not given here)",
    "Uom": "%",
    "Reading": "−47.5"
  }
]

Q: Please give the measured % change in SGLT2 expression relative to saline for this substance: ISIS 379692: SGLT2; 1-10-1 MOE gapmer (antisense eT*dG*dT*dT*d[5mC]*d[5mC]*dA*dG*d[5mC]*d[5mC]*d[5mC]*eA)
Ans: −52.5

Sourced from patent US8188059B2
